assay: Solubility of crystalline Form 1 in organic solvents; assay type: physicochemical; conditions: organic solvent or mixture; in MeOH
measured.quantity: solubility

>>> df
                                   compound  reported_value
0  [2H]C([2H])([2H])CC(=O)c1cnc(NC(=O)C2CC2)cc1Nc1cccc(-c2ncn(C([2H])([2H])[2H])n2)c1OC [Form 1]    < 3000 µg/mL

* * *

assay: Solubility of crystalline Form 1 in organic solvents; assay type: physicochemical; details: organic solvent or mixture; in heptane
measured.quantity: solubility

>>> df
                                   molecule  reported_value
0  [2H]C([2H])([2H])CC(=O)c1cnc(NC(=O)C2CC2)cc1Nc1cccc(-c2ncn(C([2H])([2H])[2H])n2)c1OC [Form 1]    < 1000 µg/mL
